systemTested: EGFR (L858R T790M C797S) (Homo sapiens, UniProt P00533, C797S/L858R/T790M)
Sequence (P00533 25-1210 T790M/C797S/L858R): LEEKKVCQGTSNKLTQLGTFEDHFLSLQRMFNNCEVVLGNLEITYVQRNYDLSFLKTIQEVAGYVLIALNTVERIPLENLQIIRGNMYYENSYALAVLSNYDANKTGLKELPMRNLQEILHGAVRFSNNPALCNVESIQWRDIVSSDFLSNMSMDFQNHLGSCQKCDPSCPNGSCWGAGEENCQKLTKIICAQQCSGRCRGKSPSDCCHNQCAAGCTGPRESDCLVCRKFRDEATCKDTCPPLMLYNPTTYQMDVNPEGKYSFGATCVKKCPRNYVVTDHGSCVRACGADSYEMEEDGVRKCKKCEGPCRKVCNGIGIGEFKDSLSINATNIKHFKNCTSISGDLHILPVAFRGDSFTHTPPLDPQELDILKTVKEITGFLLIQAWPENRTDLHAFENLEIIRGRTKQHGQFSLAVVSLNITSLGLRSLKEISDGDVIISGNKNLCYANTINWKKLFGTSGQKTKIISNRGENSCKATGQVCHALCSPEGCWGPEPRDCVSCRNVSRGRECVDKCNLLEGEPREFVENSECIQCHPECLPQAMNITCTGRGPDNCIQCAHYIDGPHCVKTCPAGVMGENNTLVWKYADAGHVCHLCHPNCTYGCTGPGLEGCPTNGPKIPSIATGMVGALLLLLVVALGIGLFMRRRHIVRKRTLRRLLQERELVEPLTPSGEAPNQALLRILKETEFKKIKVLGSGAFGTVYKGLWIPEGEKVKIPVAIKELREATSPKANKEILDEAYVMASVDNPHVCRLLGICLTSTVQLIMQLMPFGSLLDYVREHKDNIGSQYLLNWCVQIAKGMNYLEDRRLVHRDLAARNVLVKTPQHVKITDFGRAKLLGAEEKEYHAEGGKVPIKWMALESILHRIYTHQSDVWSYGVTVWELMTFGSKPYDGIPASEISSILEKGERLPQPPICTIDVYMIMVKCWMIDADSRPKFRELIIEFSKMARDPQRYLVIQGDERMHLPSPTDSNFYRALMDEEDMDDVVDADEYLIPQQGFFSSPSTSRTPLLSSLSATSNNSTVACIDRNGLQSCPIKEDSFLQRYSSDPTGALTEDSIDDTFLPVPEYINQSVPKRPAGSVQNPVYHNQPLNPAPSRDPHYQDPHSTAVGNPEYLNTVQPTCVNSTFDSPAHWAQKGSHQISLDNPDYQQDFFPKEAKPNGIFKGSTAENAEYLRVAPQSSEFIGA
assay: Biochemical EGFR inhibition assay (Caliper mobility shift), EGFR LRTMCS mutant
conditionInfo: inhibitory activity against EGFR LRTMCS mutant; apparent IC50; read-out: Ext Enz LRTMCS
measuredProperty: IC50

IC50 reading for CC1(C)CN(c2nccc(Nc3cc4cccc(N5CC(CS(C)(=O)=O)C5)c4cn3)n2)CC(F)(F)[C@@H]1O (single isomer, unassigned) : ≤ 15 nM

IC50 reading for CCS(=O)(=O)CC1CN(c2ccc(C(C)C)c3cc(Nc4ccnc(N5CC[C@H](OC)[C@H](F)C5)n4)ncc23)C1 : ≤ 15 nM

IC50 reading for C[C@@H]1[C@@H](CS(C)(=O)=O)CN1c1ccc(C2CC2)c2cc(Nc3ccnc(N4CC[C@@H](O)[C@@](C)(F)C4)n3)ncc12 (single isomer, unassigned) : ≤ 15 nM

IC50 reading for CO[C@@H]1CCN(c2nccc(Nc3cc4c(C(C)C)cnc(N5C[C@H](CS(C)(=O)=O)[C@H]5C)c4cn3)n2)C[C@@H]1O (single isomer, unassigned) : ≤ 15 nM

IC50 reading for CC(C)c1ccc(N2CC(CS(C)(=O)=O)C2)c2cnc(Nc3ccnc(N4C[C@H](F)[C@H](O)C(C)(C)C4)n3)cc12 (single isomer, unassigned) : ≤ 15 nM

IC50 reading for CO[C@@H]1[C@H](F)CN(c2nccc(Nc3cc4c(C(C)C)ccc(N5CC(CS(C)(=O)=O)C5)c4cn3)n2)C[C@@H]1O (racemic) : 15.1 to 20 nM
